Origin of the recorded values: patent US20150197564A1

system: T1, hANGPTL3(17-169)-mFc (human)
T1 construct: also called N-terminal coiled-coil domain of hANGPTL3 with a C-terminal mouse Fc fusion
T1 chain: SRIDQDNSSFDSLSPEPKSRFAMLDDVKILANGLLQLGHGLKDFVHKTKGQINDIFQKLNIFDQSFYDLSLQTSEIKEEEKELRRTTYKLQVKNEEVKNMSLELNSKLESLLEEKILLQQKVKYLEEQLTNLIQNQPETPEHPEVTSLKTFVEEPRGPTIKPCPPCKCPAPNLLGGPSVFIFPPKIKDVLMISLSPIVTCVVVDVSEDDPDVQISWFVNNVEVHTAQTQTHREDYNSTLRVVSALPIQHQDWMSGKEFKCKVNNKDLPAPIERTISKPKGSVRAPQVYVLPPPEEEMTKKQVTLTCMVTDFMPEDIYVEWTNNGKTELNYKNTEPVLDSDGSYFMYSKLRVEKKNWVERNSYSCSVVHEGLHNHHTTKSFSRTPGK
measurement description: SPR Biacore, antigen captured, 25C, pH 7.4, HBS-EP
Response key: Yes means koff >= 0.0007 s⁻¹; No means koff < 0.0007 s⁻¹.

Some entries whose results are on file:
H4H1250P (antibody, IgG4, V domains shown) VH: QVQLVESGGGVVQPGRSLRLSCAASGFTFSSYGMHWVRQAPGKGLEWVAVISNDGSNKYYVDSVKGRFTMGRDNSKNTLYLQMNSLRVEDTAVYYCAKGAGTLYYYYYGMDVWGQGTTVTVSS VL: DIQMTQSPSTLSASVGNRVTITCRASQSISSWLAWYQQKPGKAPKFLIYKASSLESGVPSRFSGSGSGTEFTLTITSLQPDDFATYYCQQYNIYSWTFGQGTKVEIK ... No
H4H1263S (antibody, IgG4, V domains shown) VH: QVQLVQSGGGVVQPGRSLRLSCAASGFTFSTYGMHWVRQAPGKGLEWMAVISFDRGNKYYADSVKGRFTISRDNSKNTLYLQMNSLRAEDTAVYYCAKGGGSGTFYYYYGMDVWGQGTTVTVSS VL: DIQMTQSPSSVSASVGNRVTITCRASQGISSWLAWYHQKPGKVPKVLIYAASSLQSGVPSRFSGSGSGTDFTLTISSLQPEDFATYYCQQANSFPFTFGPGTKVEIKR ... Yes
H4H1296P (antibody, IgG4, V domains shown) VH: QVQLVESGGVSVKPGGSLRLSCAASGFTFSDYYMSWIRQAPGKGLEWVSYIGSSGTNDYYADSVKGRFTISRDNAKNSLYLQMDSLRAEDTAVYYCARDSSQMGFDYWGQGTLVTVSS VL: DIQMTQSPSSLSASVGDRVTITCRASQNIINFLNWYQQRPGKAPQLLIYVAASLQSGVPSRFTGSGYGTDFTLTISSLQPEDFATYYCQQTYTNPLTFGGGTKVEIKR ... No
H4H1282P (antibody, IgG4, V domains shown) VH: EVQLVQSGGGVVQPGRSLRLSCAASGFTFSNYGMHWVRQAPGKGLEWVAVVWYDGDNKYYADSVKGRFTISRDNSKNTLYLQMNSLRAEDTAVYYCARDIITSRPTLDYWGQGTLVTVSS VL: DIQLTQSPSFLSASVGDRVTITCWASQGINSYLAWYQQKPGKAPKLLIYPASTLQSGVPSRFSGSGSGTEFTLTISSLQPVDFATYYCQQLNSYPLTFGGGTKVEIKR ... No
H4H1248P (antibody, IgG4, V domains shown) VH: QVQLVESGGGVVQPGRSLRLSCAASGFTFSSYGMHWVRQAPGKGLEWVAVISYDGSNKYYADSVKGRFTISRDNSKNTLYLQMNSLRAEDTAVYYCAKVGATTFYYYYGMDVWGQGTTVTVSS VL: DIQMTQSPSSVSAFVGDRVTITCRASQGISSWLAWYQQKPGKAPKLLIYAASSLQSGVPSRFSGSGSGTDFTLTISSLQPEDFATYYCQKANSFPFTFGPGTKVEIK ... Yes

Okay, next one:
Assess whether reported koff for H4H1279P (antibody, IgG4, V domains shown) VH: QVQLVESGGGLVKPGGSLRLSCAASGFTFSDYYMSWIRQAPGKGLEWVSYIGSSGVNMYYADSVKGRFTISRDNAKNSLYLEMNSLRAEDTAVYYCARDSSQLGFDYWGQGTLVTVSS VL: DIQMTQSPSSLSASVGDRVTITCRTSQNIINFLNWYQQKPGKAPKLLIYTTSTLQSGVPSRFSGSGSGTDFTLSINSLQPEDFATYFCQQTYSNPLTFGGGTKLEIKR sits at 0.0007 s⁻¹ or higher. No
